biological target: NEK6 (human) (UniProt Q9HC98); experiment: KINOMEscan competition binding; conditions: compound 10.0 µM
Sequence (Q9HC98 whole entry, looked up): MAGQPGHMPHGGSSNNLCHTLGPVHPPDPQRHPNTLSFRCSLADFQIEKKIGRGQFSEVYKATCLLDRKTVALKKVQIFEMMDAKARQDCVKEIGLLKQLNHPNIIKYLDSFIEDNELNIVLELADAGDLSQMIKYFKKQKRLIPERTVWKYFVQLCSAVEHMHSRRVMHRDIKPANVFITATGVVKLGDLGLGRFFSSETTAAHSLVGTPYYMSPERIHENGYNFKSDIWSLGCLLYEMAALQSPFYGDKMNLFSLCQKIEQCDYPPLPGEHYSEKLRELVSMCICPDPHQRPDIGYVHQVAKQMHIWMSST
measurement kind: kinase still bound, per cent of control (%)

| molecule | measurement kind | recorded value |
| --- | --- | --- |
| CNC(=O)Nc1ccc(-c2nc(N3CC4CCC(C3)O4)c3cnn(C4CCC5(CC4)OCCO5)c3n2)cc1 | kinase still bound, per cent of control | 90 |
| CCCS(=O)(=O)Nc1ccc(F)c(C(=O)c2c[nH]c3ncc(Cl)cc23)c1F | kinase still bound, per cent of control | 91 |
| CCOc1cc(N2CCC(O)CC2)ccc1Nc1ncc2c(n1)N(C)c1ccccc1C(=O)N2C | kinase still bound, per cent of control | 100 |
| CC(=O)c1c(C)c2cnc(Nc3ccc(N4CCNCC4)cn3)nc2n(C2CCCC2)c1=O | kinase still bound, per cent of control | 69 |
| CCc1nc(-c2cccc(C)c2)c(-c2ccnc(NC(=O)c3ccccc3)c2)s1 | kinase still bound, per cent of control | 100 |
| CCN1CCN(Cc2ccc(NC(=O)c3ccc(C)c(/C=C/c4cnc5[nH]ccc5c4OC)c3)cc2C(F)(F)F)CC1 | kinase still bound, per cent of control | 100 |

---

target: UniProt:P09619; test: KINOMEscan competition binding; conditions: compound 10.0 µM
Sequence (P09619 whole entry, looked up): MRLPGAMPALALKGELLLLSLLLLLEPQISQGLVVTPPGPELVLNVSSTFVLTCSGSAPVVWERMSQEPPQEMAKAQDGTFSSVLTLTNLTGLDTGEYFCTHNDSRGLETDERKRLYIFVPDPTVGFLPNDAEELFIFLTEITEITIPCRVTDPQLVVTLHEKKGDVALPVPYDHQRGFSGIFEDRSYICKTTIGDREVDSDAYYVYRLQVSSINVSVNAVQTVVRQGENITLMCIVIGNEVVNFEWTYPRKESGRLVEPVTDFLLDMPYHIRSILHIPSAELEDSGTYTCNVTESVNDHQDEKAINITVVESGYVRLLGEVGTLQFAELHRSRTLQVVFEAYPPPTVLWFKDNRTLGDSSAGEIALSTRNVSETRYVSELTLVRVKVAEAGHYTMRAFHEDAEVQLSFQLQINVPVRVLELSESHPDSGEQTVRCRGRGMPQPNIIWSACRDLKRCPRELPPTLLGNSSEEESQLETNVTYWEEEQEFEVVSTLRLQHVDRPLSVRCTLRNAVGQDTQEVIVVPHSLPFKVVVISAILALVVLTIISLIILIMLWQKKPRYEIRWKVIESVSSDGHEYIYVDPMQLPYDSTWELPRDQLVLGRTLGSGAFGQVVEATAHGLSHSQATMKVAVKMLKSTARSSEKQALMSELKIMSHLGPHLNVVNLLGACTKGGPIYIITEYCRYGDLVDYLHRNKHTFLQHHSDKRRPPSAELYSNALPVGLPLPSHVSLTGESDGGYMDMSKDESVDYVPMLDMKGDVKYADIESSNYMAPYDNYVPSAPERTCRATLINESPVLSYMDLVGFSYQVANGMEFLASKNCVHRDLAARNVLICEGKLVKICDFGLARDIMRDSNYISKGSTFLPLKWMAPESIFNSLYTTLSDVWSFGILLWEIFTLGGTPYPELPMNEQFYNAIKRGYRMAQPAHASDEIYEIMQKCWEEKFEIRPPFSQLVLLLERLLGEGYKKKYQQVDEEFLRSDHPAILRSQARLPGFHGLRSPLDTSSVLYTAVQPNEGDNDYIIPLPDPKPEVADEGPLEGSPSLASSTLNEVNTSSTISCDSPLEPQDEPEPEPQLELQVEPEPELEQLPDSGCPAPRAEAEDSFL
measurement kind: kinase still bound, per cent of control (%)

| molecule | measurement kind | recorded value |
| --- | --- | --- |
| CNC(=O)Nc1ccc(-c2nc(N3CC4CCC(C3)O4)c3cnn(C4CCC5(CC4)OCCO5)c3n2)cc1 | kinase still bound, per cent of control | 89 |
| N#C/C(=C1/Nc2ccccc2S1)c1ccnc(NCCc2cccnc2)n1 | kinase still bound, per cent of control | 64 |
| N#Cc1cc(-c2ccnc(Nc3ccc(-n4cnc(-c5cccnc5)n4)cc3)n2)cc(N2CCOCC2)c1 | kinase still bound, per cent of control | 8.2 |
| CC1=C(C(=O)Nc2cc3cn[nH]c3cc2F)C(c2ccc(C(F)(F)F)cc2)CC(=O)N1 (stereo not given) | kinase still bound, per cent of control | 70 |
| COc1ccc(N(C(=O)Oc2cc(C(=O)Nc3cccc(C(F)(F)F)c3)ccc2C)c2ccnc(Nc3ccc(N4CCN(C)CC4)cc3)n2)c(OC)c1 | kinase still bound, per cent of control | 0.45 |
| CCCS(=O)(=O)Nc1ccc(F)c(C(=O)c2c[nH]c3ncc(Cl)cc23)c1F | kinase still bound, per cent of control | 0 |
| CCOc1cc(N2CCC(O)CC2)ccc1Nc1ncc2c(n1)N(C)c1ccccc1C(=O)N2C | kinase still bound, per cent of control | 100 |
| Cc1cn(-c2cc(C(=O)Nc3ccc(C)c(NC(=O)c4ccno4)c3)cc(C(F)(F)F)c2)cn1 | kinase still bound, per cent of control | 0 |
| CCc1nc(-c2cccc(C)c2)c(-c2ccnc(NC(=O)c3ccccc3)c2)s1 | kinase still bound, per cent of control | 34 |
| CCN1CCN(Cc2ccc(NC(=O)c3ccc(C)c(/C=C/c4cnc5[nH]ccc5c4OC)c3)cc2C(F)(F)F)CC1 | kinase still bound, per cent of control | 0.05 |

---

target: TYK2 JH1 catalytic (human) (UniProt P29597); assay: KINOMEscan competition binding; settings: compound 10.0 µM
Sequence (P29597 whole entry, looked up): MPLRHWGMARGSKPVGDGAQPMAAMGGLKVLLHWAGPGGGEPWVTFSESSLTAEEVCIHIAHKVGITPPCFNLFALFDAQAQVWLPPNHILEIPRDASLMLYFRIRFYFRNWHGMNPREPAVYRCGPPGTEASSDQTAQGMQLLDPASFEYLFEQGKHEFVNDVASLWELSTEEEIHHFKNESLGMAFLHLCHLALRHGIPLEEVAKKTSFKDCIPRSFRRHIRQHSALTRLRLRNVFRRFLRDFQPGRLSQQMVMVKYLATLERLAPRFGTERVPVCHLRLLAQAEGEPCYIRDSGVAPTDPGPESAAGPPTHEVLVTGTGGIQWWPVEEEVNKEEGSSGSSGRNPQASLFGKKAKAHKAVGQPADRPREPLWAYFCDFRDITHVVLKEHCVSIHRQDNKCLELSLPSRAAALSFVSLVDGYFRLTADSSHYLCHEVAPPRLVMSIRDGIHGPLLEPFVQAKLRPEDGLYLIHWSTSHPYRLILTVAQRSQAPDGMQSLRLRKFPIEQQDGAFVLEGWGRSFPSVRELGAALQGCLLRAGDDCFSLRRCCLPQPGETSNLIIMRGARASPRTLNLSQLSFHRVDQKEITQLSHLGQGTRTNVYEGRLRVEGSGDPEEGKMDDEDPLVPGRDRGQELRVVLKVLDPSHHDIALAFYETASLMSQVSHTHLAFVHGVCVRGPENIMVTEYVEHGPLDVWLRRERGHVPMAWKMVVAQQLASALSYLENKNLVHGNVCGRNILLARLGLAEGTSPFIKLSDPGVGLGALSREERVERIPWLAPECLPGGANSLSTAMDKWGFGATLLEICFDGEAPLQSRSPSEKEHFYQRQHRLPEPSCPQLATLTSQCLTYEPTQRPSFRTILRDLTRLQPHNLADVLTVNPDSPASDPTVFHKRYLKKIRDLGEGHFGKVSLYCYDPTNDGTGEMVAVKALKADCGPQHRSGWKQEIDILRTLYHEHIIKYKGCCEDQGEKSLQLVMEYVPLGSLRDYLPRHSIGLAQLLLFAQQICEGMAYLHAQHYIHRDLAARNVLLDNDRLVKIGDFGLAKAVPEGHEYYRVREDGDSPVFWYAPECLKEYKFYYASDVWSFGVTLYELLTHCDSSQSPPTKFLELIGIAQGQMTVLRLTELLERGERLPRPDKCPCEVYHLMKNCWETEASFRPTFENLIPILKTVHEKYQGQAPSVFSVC
// returns not met unless kinase still bound, per cent of control is strictly below 30%, in which case met

| molecule | classification |
| --- | --- |
| CCOc1cc(N2CCC(O)CC2)ccc1Nc1ncc2c(n1)N(C)c1ccccc1C(=O)N2C | not met |
| COc1ccc(N(C(=O)Oc2cc(C(=O)Nc3cccc(C(F)(F)F)c3)ccc2C)c2ccnc(Nc3ccc(N4CCN(C)CC4)cc3)n2)c(OC)c1 | met |
| CC(=O)c1c(C)c2cnc(Nc3ccc(N4CCNCC4)cn3)nc2n(C2CCCC2)c1=O | met |
| COc1cc2ncnc(Nc3cccc(Cl)c3)c2cc1OC | not met |
| N#Cc1cc(-c2ccnc(Nc3ccc(-n4cnc(-c5cccnc5)n4)cc3)n2)cc(N2CCOCC2)c1 | met |
| C=CC(=O)Nc1ccc(C(=O)c2sc(Nc3ccc(N4CCN(C)CC4)cc3OC)nc2N)cc1 | not met |
